All values here come from patent US9902702B2.

target: UniProt O75116
Sequence (O75116 whole entry, species assumed): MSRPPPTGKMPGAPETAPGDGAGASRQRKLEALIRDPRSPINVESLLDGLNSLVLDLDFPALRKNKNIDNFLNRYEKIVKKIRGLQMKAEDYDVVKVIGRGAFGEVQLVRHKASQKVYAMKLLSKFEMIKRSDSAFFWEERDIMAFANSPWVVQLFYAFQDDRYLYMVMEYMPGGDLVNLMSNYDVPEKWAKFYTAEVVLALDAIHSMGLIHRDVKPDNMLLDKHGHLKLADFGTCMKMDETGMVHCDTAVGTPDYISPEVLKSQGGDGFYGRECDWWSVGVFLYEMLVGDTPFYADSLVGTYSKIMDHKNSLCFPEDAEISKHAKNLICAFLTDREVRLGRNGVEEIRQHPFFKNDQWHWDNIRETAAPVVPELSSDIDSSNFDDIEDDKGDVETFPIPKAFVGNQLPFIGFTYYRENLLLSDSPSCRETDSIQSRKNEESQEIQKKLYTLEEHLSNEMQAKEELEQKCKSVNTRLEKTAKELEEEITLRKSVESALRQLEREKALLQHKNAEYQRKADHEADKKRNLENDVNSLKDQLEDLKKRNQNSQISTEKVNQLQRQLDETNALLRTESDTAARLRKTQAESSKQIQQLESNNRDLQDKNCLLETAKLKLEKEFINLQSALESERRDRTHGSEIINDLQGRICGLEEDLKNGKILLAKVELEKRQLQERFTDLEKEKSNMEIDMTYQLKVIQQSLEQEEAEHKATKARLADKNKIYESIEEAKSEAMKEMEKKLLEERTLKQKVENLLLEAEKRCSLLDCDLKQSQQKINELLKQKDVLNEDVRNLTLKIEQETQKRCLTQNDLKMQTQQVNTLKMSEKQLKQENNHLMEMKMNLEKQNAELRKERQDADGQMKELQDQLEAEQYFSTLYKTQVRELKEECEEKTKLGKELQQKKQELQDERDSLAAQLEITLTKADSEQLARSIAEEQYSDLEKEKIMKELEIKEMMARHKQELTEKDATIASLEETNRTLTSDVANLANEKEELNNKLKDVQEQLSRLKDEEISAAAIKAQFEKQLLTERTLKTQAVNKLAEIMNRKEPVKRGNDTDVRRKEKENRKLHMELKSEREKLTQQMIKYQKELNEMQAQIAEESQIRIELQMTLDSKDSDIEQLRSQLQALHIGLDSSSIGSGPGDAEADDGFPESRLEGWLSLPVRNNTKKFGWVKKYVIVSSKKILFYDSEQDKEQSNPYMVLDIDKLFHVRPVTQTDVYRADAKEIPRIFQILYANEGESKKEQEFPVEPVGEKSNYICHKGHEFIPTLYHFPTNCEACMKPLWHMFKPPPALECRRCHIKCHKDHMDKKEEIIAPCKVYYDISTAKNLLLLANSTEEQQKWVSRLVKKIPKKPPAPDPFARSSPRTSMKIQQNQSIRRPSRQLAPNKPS
reported-endpoint: IC50

[[record]]
compound = "[H][C@]1(c2n[nH]c(=O)c3ccccc32)C[C@]2(C[C@@H](NC(=O)c3cnc4cc(-c5cnn(C)c5)ccn34)C2)C1 (stereo partly drawn) [Example 440]"
target_or_system = "UniProt O75116"
result = "0.2 to 2 nM"

[[record]]
compound = "[H][C@]1(c2n[nH]c(=O)c3ccccc32)C[C@]2(C[C@@H](NC(=O)c3cnc(O)c(Cl)c3)C2)C1 (stereo partly drawn) [Example 347]"
target_or_system = "UniProt O75116"
result = "100 to 2100 nM"

[[record]]
compound = "O=C(NC1CC2(C1)CC(c1n[nH]c(=O)c3ccccc13)C2)c1cnn2ccc(OCCN3CCOCC3)cc12 (stereo not drawn) [Example 73]"
target_or_system = "UniProt O75116"
result = "2.01 to 5 nM"

[[record]]
compound = "CC(C)(O)Cn1nc(C(=O)NC2CC3(C2)CC(c2n[nH]c(=O)c4ccccc24)C3)c2ccccc21 (stereo not drawn) [Example 11]"
target_or_system = "UniProt O75116"
result = "15.1 to 100 nM"

[[record]]
compound = "Cn1cc(-c2ccc3c(c2)CCN3C(=O)NC2CC3(C2)CC(c2n[nH]c(=O)c4ccccc24)C3)cn1 (stereo not drawn) [Example 235]"
target_or_system = "UniProt O75116"
result = "0.2 to 2 nM"

[[record]]
compound = "CC(C)(O)Cn1nc(C(=O)NC2CC3(C2)CC(F)(c2n[nH]c(=O)c4ccccc24)C3)c2ccc(F)cc21 (stereo not drawn) [Example 163]"
target_or_system = "UniProt O75116"
result = "15.1 to 100 nM"

